Reference for the values: patent US20250026743A1

Biological target: hmGlu5 (Homo sapiens)
Construct: expressed in transfected cells; host or cells: HEK 293A
Sequence (P41594 21-1212): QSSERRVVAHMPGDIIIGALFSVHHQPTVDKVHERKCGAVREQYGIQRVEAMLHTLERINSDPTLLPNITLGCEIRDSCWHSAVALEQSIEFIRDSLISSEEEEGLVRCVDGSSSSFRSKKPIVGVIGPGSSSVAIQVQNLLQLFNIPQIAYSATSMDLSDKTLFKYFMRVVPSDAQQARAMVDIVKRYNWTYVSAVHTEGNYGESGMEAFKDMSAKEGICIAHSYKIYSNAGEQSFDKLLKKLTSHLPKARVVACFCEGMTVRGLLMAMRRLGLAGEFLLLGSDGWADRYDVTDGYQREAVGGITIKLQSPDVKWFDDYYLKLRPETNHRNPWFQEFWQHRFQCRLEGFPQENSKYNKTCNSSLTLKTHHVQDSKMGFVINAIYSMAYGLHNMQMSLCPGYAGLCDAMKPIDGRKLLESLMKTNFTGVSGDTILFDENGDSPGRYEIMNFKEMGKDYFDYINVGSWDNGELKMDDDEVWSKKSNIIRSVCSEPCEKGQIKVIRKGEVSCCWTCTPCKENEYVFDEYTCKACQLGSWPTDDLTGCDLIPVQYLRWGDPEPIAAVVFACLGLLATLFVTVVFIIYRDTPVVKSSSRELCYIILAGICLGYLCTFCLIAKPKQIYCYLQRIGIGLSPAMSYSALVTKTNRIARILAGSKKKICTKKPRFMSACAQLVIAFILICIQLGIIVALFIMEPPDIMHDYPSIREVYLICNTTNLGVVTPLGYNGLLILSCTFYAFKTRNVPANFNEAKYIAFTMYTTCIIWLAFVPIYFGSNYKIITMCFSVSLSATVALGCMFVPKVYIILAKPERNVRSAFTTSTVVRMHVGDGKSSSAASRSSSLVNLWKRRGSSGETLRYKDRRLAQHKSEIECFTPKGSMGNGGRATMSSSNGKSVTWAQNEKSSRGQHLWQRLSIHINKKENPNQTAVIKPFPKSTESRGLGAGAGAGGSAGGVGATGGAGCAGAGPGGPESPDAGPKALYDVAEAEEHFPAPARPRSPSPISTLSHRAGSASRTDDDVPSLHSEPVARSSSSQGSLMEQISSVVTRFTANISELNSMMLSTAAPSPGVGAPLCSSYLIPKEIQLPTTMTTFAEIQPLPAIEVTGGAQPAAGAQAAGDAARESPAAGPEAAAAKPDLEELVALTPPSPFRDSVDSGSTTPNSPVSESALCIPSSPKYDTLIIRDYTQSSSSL
Test: mGlu5 Ca2+ flux assay in HEK 293A cells (negative allosteric modulation of glutamate EC80 response)
Format: cell-based
Conditions: HEK 293A cells, Ca2+ flux, glutamate EC80; >10,000 = decrease without plateau; read-out: hmGlu5 NAM IC50
Below: a set of entries, each annotated with reported log10 IC50.
OBSERVED PROPERTY: log10 IC50 (log10 of the value in nM)

# STRUCTURE NOTATION, log10 IC50
data = [
    ("Cc1nc(-c2noc(-c3ccc(F)cn3)n2)cc(-c2cncc(C#N)c2)c1F", 2.88),
    ("COc1c(-c2cncc(F)c2)cc(-c2nc(-c3ccc(F)cn3)no2)nc1C", 2.53),
    ("Cc1nc(-c2noc(-c3ccc(F)cc3F)n2)cc(-c2cncc(F)c2)c1F", 2.80),
    ("COc1c(-c2cnn(C(F)F)c2)cc(-c2noc(-c3ccc(F)cn3)n2)nc1C", 3.05),
    ("Cc1nc(-c2noc(-c3cccnc3)n2)cc(-c2cncc(F)c2)c1F", 3.19),
    ("Cc1nc(-c2noc(-c3cccc(Cl)c3)n2)cc(-c2cncc(F)c2)c1F", 3.76),
    ("Cc1ccncc1-c1cc(-c2noc(-c3ccc(F)cn3)n2)nc(C(F)F)c1", 2.27),
    ("Cc1nc(-c2nnc(-c3cccnc3)o2)cc(-c2cncc(F)c2)c1F", 3.52),
    ("Cc1nc(-c2nnc(-c3ccc(F)cn3)o2)cc(-c2cnn(C(F)F)c2)c1F", 2.17),
]
